- Test system: control Gram-negative E. coli 25922 strain
- protocol-text: Antibacterial activity, microbroth dilution MIC, E. coli 25922
- Assay type: cell-based, Escherichia coli
- particulars: Escherichia coli; E. coli 25922, microbroth dilution; read-out: MIC, 25922
Hi there, I'd appreciate the recorded MIC for every entry that follows.

Requested field: MIC. Item: C=CCN(CC=C)c1ccc(-c2[nH]c(=O)c(C(=O)O)c(O)c2CC)cc1 [Cpd 300]
12.5 to 150 µg/mL

Lookup CCc1cc(C(=O)O)c(=O)[nH]c1-c1ccc(Br)cc1 [Cpd 78]
12.5 to 150 µg/mL

Lookup CCc1c(-c2ccc(N(C)C)cc2)[nH]c(=O)c(C(=O)O)c1O [Cpd 90]
1 to 3.5 µg/mL

Lookup CCc1cc(C(=O)O)c(=O)[nH]c1-c1ccc(-n2ccnc2)cc1 [Cpd 106]
12.5 to 150 µg/mL

Lookup CCc1cc(C(=O)O)c(=O)[nH]c1-c1ccc(N(C)C)s1 [Cpd 305]
12.5 to 150 µg/mL

Lookup CCc1cc(C(=O)O)c(=O)[nH]c1-c1ccc(N2C[C@H]3CCC[C@@H](N(C)C)[C@H]3C2)cc1.Cl [Cpd 193]
12.5 to 150 µg/mL

Lookup CCc1cc(C(=O)O)c(=O)[nH]c1-c1ccc(N2CCC(N3CCOCC3)C2)cc1.O=C(O)C(F)(F)F (stereo not shown) [Cpd 140]
3.5 to 12.5 µg/mL
